Test: Ex vivo biodistribution in PC-3 tumor-bearing mice
Details: male, NRG, mouse, liver, iv, total radioactivity, Biodistribution Liver Mean, 1 h post-injection, mice bearing PC-3 tumor xenografts, n = 4
REPORTED_ENDPOINT: tissue uptake at 1 h (%ID/g)
Numbers only, in %ID/g.

Example entries begin here.
Ask: Would you kindly share the measured tissue uptake at 1 h for CC(C)C[C@@H](CN1CSC[C@H]1C(N)=O)NC(=O)[C@H](Cc1c[nH]cn1)NC(=O)CNC(=O)[C@@H](NC(=O)[C@H](C)NC(=O)[C@H](Cc1c[nH]c2ccccc12)NC(=O)[C@H](CCC(N)=O)NC(=O)[C@@H](Cc1ccc2ccccc2c1)NC(=O)CN1CCC(NC(=O)CN2CCN(CC(=O)O)CCN(CC(=O)O)CCN(CC(=O)O)CC2)CC1)C(C)C [^68Ga-LW01059, metal not drawn] ?
Result: 21.5

Ask: Try CC(C)C[C@@H](CN1CSC[C@H]1C(N)=O)NC(=O)[C@H](Cc1c[nH]cn1)NC(=O)CNC(=O)[C@@H](NC(=O)[C@H](C)NC(=O)[C@H](Cc1c[nH]c2ccccc12)NC(=O)[C@H](CCC(N)=O)NC(=O)[C@@H](Cc1ccccc1)NC(=O)CN1CCC(NC(=O)CN2CCN(CC(=O)O)CCN(CC(=O)O)CCN(CC(=O)O)CC2)CC1)C(C)C [^68Ga-LW01045, metal not drawn] next.
Result: 2.61

***
Ask: Would you kindly share the measured tissue uptake at 1 h for CC(C)C[C@@H](CN1CCC[C@H]1C(N)=O)NC(=O)[C@H](Cc1c[nH]cn1)NC(=O)CN(C)C(=O)[C@@H](NC(=O)[C@H](C)NC(=O)[C@H](Cc1c[nH]c2ccccc12)NC(=O)[C@H](CCC(N)=O)NC(=O)[C@@H](Cc1ccccc1)NC(=O)CN1CCC(NC(=O)CN2CCN(CC(=O)O)CCN(CC(=O)O)CCN(CC(=O)O)CC2)CC1)C(C)C [^68Ga-LW02045, metal not drawn] ?
Result: 0.37

----------
Would you mind telling me the reported tissue uptake at 1 h of each entry?
Test: in vivo
Details: male, NRG, mouse, iv, total radioactivity, Biodistribution Spleen Mean
Numbered stars: 1 amine (or outer) side, 2 acyl side, 3 side chain; on linkers, the order of the positions; unused ones are H or OH. Square brackets hold non-standard residues; d marks the D form. Peptide text beside a SMILES is read from it. * marks the point of attachment. DOTA = O=C(O)CN1CCN(CC(=O)O)CCN(CC(=O)*)CCN(CC(=O)O)CC1; Leuψ(CH2N)ThzNH2 = CC(C)C[C@@H](CN1CSC[C@H]1C(N)=O)N*; NMeH = CN[C@@H](Cc1c[nH]cn1)C(=O)O; X1 = O=C(CN1CCC(N[*:1])CC1)[*:2]; Tle = CC(C)(C)[C@H](N)C(=O)O; Thz = O=C(O)[C@@H]1CSCN1
Value and unit, in that order.

Ask: Would you kindly share the measured tissue uptake at 1 h for CC(C)C[C@H](NC(=O)[C@H](Cc1cnc[nH]1)N(C)C(=O)CNC(=O)[C@@H](NC(=O)[C@H](C)NC(=O)[C@H](Cc1c[nH]c2ccccc12)NC(=O)[C@H](CCC(N)=O)NC(=O)[C@@H](Cc1ccccc1)NC(=O)CN1CCC(NC(=O)CN2CCN(CC(=O)O)CCN(CC(=O)O)CCN(CC(=O)O)CC2)CC1)C(C)(C)C)C(=O)N1CSC[C@H]1C(N)=O [^68Ga-LW01110, metal not drawn] ?
Result: 0.29 %ID/g

Ask: Try CC(C)C[C@H](NC(=O)[C@H](Cc1c[nH]cn1)NC(=O)CNC(=O)[C@@H](NC(=O)[C@H](C)NC(=O)[C@H](Cc1c[nH]c2ccccc12)NC(=O)[C@H](CCC(N)=O)NC(=O)[C@@H](Cc1ccccc1)NC(=O)CN1CCC(NC(=O)CN2CCN(CC(=O)O)CCN(CC(=O)O)CCN(CC(=O)O)CC2)CC1)C(C)(C)C)C(=O)N1CSC[C@H]1C(N)=O [^68Ga-LW01108, metal not drawn] next.
Result: 0.4 %ID/g

Ask: Try CC(C)C[C@H](NC(=O)[C@H](Cc1cnc[nH]1)N(C)C(=O)CNC(=O)[C@@H](NC(=O)[C@H](C)NC(=O)[C@H](Cc1c[nH]c2ccccc12)NC(=O)[C@H](Cc1c[nH]cn1)NC(=O)[C@@H](Cc1ccccc1)NC(=O)CN1CCC(NC(=O)CN2CCN(CC(=O)O)CCN(CC(=O)O)CCN(CC(=O)O)CC2)CC1)C(C)(C)C)C(=O)N1CSC[C@H]1C(N)=O [^68Ga-LW01142, metal not drawn] ({DOTA}-[X1][dF]HWA[Tle]G[NMeH]L[Thz]-NH2) next.
Result: 0.88 %ID/g

Ask: Try CC(C)C[C@@H](CN1CSC[C@H]1C(N)=O)NC(=O)[C@H](Cc1c[nH]cn1)NC(=O)CNC(=O)[C@@H](NC(=O)[C@H](C)NC(=O)[C@H](Cc1c[nH]c2ccccc12)NC(=O)[C@H](CCC(N)=O)NC(=O)[C@@H](Cc1ccccc1)NC(=O)CN1CCC(NC(=O)CN2CCN(CC(=O)O)CCN(CC(=O)O)CCN(CC(=O)O)CC2)CC1)C(C)(C)C [^68Ga-LW01158, metal not drawn] ({DOTA}-[X1][dF]QWA[Tle]GH-{Leuψ(CH2N)ThzNH2}) next.
Result: 0.6 %ID/g

Attention now turns to another entry.
Ask: Would you kindly share the measured tissue uptake at 1 h for CC(C)C[C@H](NC(=O)[C@H](Cc1c[nH]cn1)N(C)C(=O)CNC(=O)[C@@H](NC(=O)[C@H](C)NC(=O)[C@H](Cc1c[nH]c2ccccc12)NC(=O)[C@H](CCC(N)=O)NC(=O)[C@@H](Cc1ccccc1)NC(=O)CN1CCC(NC(=O)CN2CCN(CC(=O)O)CCN(CC(=O)O)CCN(CC(=O)O)CC2)CC1)C(C)C)C(=O)N1CSC[C@H]1C(N)=O [^68Ga-LW01107, metal not drawn] ?
Result: 0.13 %ID/g

----------
Would you mind telling me the reported tissue uptake at 1 h of each entry?
Assay: Ex vivo biodistribution in PC-3 tumor-bearing mice
Conditions: male, NRG, mouse, brain, iv, total radioactivity, Biodistribution Brain Mean, 1 h post-injection, mice bearing PC-3 tumor xenografts, n = 4
Give bare numbers, in %ID/g.

Example entries begin here.
Ask: Would you kindly share the measured tissue uptake at 1 h for CC(C)C[C@H](NC(=O)[C@H](Cc1c[nH]cn1)NC(=O)CNC(=O)[C@@H](NC(=O)[C@H](C)NC(=O)[C@H](Cc1c[nH]c2ccccc12)NC(=O)[C@H](CCC(N)=O)NC(=O)[C@@H](Cc1ccccc1)NC(=O)CN1CCC(NC(=O)CN2CCN(CC(=O)O)CCN(CC(=O)O)CCN(CC(=O)O)CC2)CC1)C(C)C)C(=O)N1CSC[C@H]1C(N)=O [^68Ga-LW01025, metal not drawn] ?
Result: 0.03

Ask: Try CC(C)C[C@@H](CN1CSC[C@H]1C(N)=O)NC(=O)[C@H](Cc1c[nH]cn1)NC(=O)CNC(=O)[C@@H](NC(=O)[C@H](C)NC(=O)[C@H](Cc1c[nH]c2ccccc12)NC(=O)[C@H](CCC(N)=O)NC(=O)[C@@H](Cc1ccc2ccccc2c1)NC(=O)CN1CCC(NC(=O)CN2CCN(CC(=O)O)CCN(CC(=O)O)CCN(CC(=O)O)CC2)CC1)C(C)C [^68Ga-LW01059, metal not drawn] next.
Result: 0.06

Ask: Try CC(C)C[C@H](NC(=O)[C@H](Cc1c[nH]cn1)NC(=O)CNC(=O)[C@@H](NC(=O)[C@H](C)NC(=O)[C@H](Cc1c[nH]c2ccccc12)NC(=O)[C@H](CCC(N)=O)NC(=O)[C@@H](Cc1ccc2ccccc2c1)NC(=O)CN1CCC(NC(=O)CN2CCN(CC(=O)O)CCN(CC(=O)O)CCN(CC(=O)O)CC2)CC1)C(C)C)C(=O)N1CSC[C@H]1C(N)=O [^68Ga-LW01029, metal not drawn] next.
Result: 0.04

Attention now turns to another entry.
Ask: Would you kindly share the measured tissue uptake at 1 h for CC(C)C[C@@H](CN1CSC[C@H]1C(N)=O)NC(=O)[C@H](Cc1c[nH]cn1)NC(=O)CNC(=O)[C@@H](NC(=O)[C@H](C)NC(=O)[C@H](Cc1c[nH]c2ccccc12)NC(=O)[C@H](CCC(N)=O)NC(=O)[C@@H](Cc1ccccc1)NC(=O)CN1CCC(NC(=O)CN2CCN(CC(=O)O)CCN(CC(=O)O)CCN(CC(=O)O)CC2)CC1)C(C)C [^68Ga-LW01045, metal not drawn] ?
Result: 0.05

----------
Assay: in vivo
Details: male, NRG, mouse, iv, total radioactivity, Biodistribution Kidneys Mean
Numbered stars: 1 amine (or outer) side, 2 acyl side, 3 side chain; on linkers, the order of the positions; unused ones are H or OH. Square brackets hold non-standard residues; d marks the D form. Peptide text beside a SMILES is read from it. * marks the point of attachment. DOTA = O=C(O)CN1CCN(CC(=O)O)CCN(CC(=O)*)CCN(CC(=O)O)CC1; NMeH = CN[C@@H](Cc1c[nH]cn1)C(=O)O; X1 = O=C(CN1CCC(N[*:1])CC1)[*:2]; Tle = CC(C)(C)[C@H](N)C(=O)O; Thz = O=C(O)[C@@H]1CSCN1
REPORTED_ENDPOINT: tissue uptake at 1 h
Value and unit, in that order.

Ask: Would you kindly share the measured tissue uptake at 1 h for CC(C)C[C@H](NC(=O)[C@H](Cc1cnc[nH]1)N(C)C(=O)CNC(=O)[C@@H](NC(=O)[C@H](C)NC(=O)[C@H](Cc1c[nH]c2ccccc12)NC(=O)[C@H](Cc1c[nH]cn1)NC(=O)[C@@H](Cc1ccccc1)NC(=O)CN1CCC(NC(=O)CN2CCN(CC(=O)O)CCN(CC(=O)O)CCN(CC(=O)O)CC2)CC1)C(C)(C)C)C(=O)N1CSC[C@H]1C(N)=O [^68Ga-LW01142, metal not drawn] ({DOTA}-[X1][dF]HWA[Tle]G[NMeH]L[Thz]-NH2) ?
Result: 6.36 %ID/g
